- Tested on: L1 retrotransposition
- assay: HeLa dual-luciferase L1 retrotransposition assay
- Format: cell-based, human
- assay-conditions: 5 μM inhibitor; average of 4 replicates; Figure 4b
Measured L1 retrotransposition, average of individual entries

# smiles-entry, L1 retrotransposition, average
records = [
    ("COc1ccc2c(c1)C(=O)N(CCc1ccc(S(=O)(=O)NC(=O)NC3CCCCC3)cc1)C(=O)C2(C)C", 10.1662),
    ("Nn1cnn2c(SCC(=O)Cc3ccc(-c4nc5cc(NC(=O)CSc6nnc7n(N)cnn67)ccc5o4)cc3)nnc12", 6.3671),
    ("COc1ccc(OC)c(NS(=O)(=O)c2ccc(NS(=O)(=O)c3cccc([N+](=O)[O-])c3)cc2)c1", 4.066),
    ("C[C@H]1C[C@H](C)CN(CCCNc2ccc(C(=O)Nc3ccc(C(F)(F)F)cc3)cc2[N+](=O)[O-])C1", 1.566),
]

====

- System: HeLa Tet-On cells
- assay-conditions: human

# smiles-entry, PrestoBlue (viability), average
rows = [
    ("C/C(=N\\Nc1ccc([N+](=O)[O-])cc1[N+](=O)[O-])c1ccc(-n2nncc2C(C)(C)C)cc1", 16.01),
    ("Cc1cc(=O)oc2c3c(ccc12)O/C(=N/Nc1ccc([N+](=O)[O-])cc1[N+](=O)[O-])C3=O", 15.98),
    ("C/C(C[C@H](c1ccccc1)c1c(O)c2ccccc2oc1=O)=N\\Nc1ccc([N+](=O)[O-])cc1[N+](=O)[O-]", 15.41),
    ("O=C(NCCCCCCNC(=O)Nc1cccc([N+](=O)[O-])c1)Nc1cccc([N+](=O)[O-])c1", 14.98),
    ("O=C(CCCCCCCCCCC(=O)Nc1cccc([N+](=O)[O-])c1)Nc1cccc([N+](=O)[O-])c1", 15.84),
    ("O=C1c2ccc(Oc3ccc4c(c3)C(=O)N(Nc3ccc([N+](=O)[O-])cc3[N+](=O)[O-])C4=O)cc2C(=O)N1Nc1ccc([N+](=O)[O-])cc1[N+](=O)[O-]", 12.09),
]

====

- Tested on: HeLa Tet-On cells
- assay-conditions: human, 48 h, 50 μM
Measured PrestoBlue (viability), average of individual entries

# smiles-entry, tested-on, PrestoBlue (viability), average
measured = [
    ("C[C@H]1C[C@H](C)CN(CCCNc2ccc(C(=O)Nc3ccc(C(F)(F)F)cc3)cc2[N+](=O)[O-])C1", "HeLa Tet-On cells", 17.51),
    ("O=C(Cn1nc(-c2ccc(Br)cc2)ccc1=O)NC[C@H]1CC[C@H](C(=O)O)CC1", "HeLa Tet-On cells", 6.621),
    ("COc1ccc2c(c1)C(=O)N(CCc1ccc(S(=O)(=O)NC(=O)NC3CCCCC3)cc1)C(=O)C2(C)C", "HeLa Tet-On cells", 5.992),
    ("Nn1cnn2c(SCC(=O)Nc3nnc(SCC(=O)Nc4ccc(S(N)(=O)=O)cc4)s3)nnc12", "HeLa Tet-On cells", 15.21),
]

====

- tested-on: APE1 (Homo sapiens)
- Construct: purchased New England Biolabs (NEB) M0282S
- assay: APE1 fluorescent oligonucleotide activity assay (abasic site substrate)
- Assay type: biochemical
- assay-conditions: compound at 25 μM; average of 3 replicates
Measured APE1 percent activity, average of individual entries

# compound, APE1 percent activity, average (%)
records = [
    ("O=C(O)C1CCC(Cn2c(=S)[nH]c3ccc(F)cc3c2=O)CC1 (centres unmarked) [AD41]", 111.455),
    ("COc1ccc(OC)c(NS(=O)(=O)c2ccc(NS(=O)(=O)c3cccc([N+](=O)[O-])c3)cc2)c1 [AD36]", 118.181),
    ("O=C(Nc1ccc(S(=O)(=O)NCc2ccco2)cc1)c1cc(NS(=O)(=O)c2cccs2)cc(NS(=O)(=O)c2cccs2)c1 [AD18]", 103.14),
    ("O=C(Cn1nc(-c2ccc(Br)cc2)ccc1=O)NC[C@H]1CC[C@H](C(=O)O)CC1 [AD43]", 115.94),
    ("Cc1ccc(NC(=O)CSc2nc(-c3ccccc3F)nc3c2Cc2c(CO)cnc(C)c2O3)cc1 [AD28]", 118.32),
    ("Nn1cnn2c(SCC(=O)Nc3nnc(SCC(=O)Nc4ccc(S(N)(=O)=O)cc4)s3)nnc12 [AD29]", 81.1831),
    ("Cc1cc(O[C@H](C)C(=O)NC[C@H]2CC[C@H](C(=O)O)CC2)c2c3c(c(=O)oc2c1)CCC3 [AD50]", 115.694),
    ("C[C@H]1C[C@H](C)CN(CCCNc2ccc(C(=O)Nc3ccc(C(F)(F)F)cc3)cc2[N+](=O)[O-])C1 [AD9]", 115.94),
    ("COc1ccc2c(c1)C(=O)N(CCc1ccc(S(=O)(=O)NC(=O)NC3CCCCC3)cc1)C(=O)C2(C)C [AD12]", 109.069),
    ("COc1ccc([N+](=O)[O-])cc1NC(=O)c1ccc2c(c1)N(Cc1cc(C)ccc1C)C(=O)c1ccccc1S2(=O)=O [AD34]", 113.833),
    ("Nn1cnn2c(SCC(=O)Cc3ccc(-c4nc5cc(NC(=O)CSc6nnc7n(N)cnn67)ccc5o4)cc3)nnc12 [AD16]", 95.5327),
]
